experimental_details: Biodistribution studies in mice (radioiodinated compounds, % ID/g-tissue)
Type: in vivo
protocol_conditions: mouse, liver, iv, liver, 1', tracer level, but MDTA-Na 0.18M and MDTA-NMG 0.19M, read-out: Biodistribution, Liver 1'
reported_endpoint: tissue uptake at 1 min (%ID/g)

See these solved cases before continuing.
INSERT INTO measurements (compound, units_of_measure, measured) VALUES
  ('CC(=O)N(C)c1c(I)c(C(=O)NCCCCCCC(=O)O)c(I)c(N(C)C(C)=O)c1I [Example F7-DP-MDTA]', '%ID/g', 17.1),
  ('CC(=O)N(C)c1c(I)c(C(=O)Nc2ccc(CCCCCCCCCCCCCCCCCCC(=O)O)cc2)c(I)c(N(C)C(C)=O)c1I [Example F19-P-MDTA]', '%ID/g', 17.2);

a. CC(=O)N(C)c1c(I)c(C(=O)Nc2ccc(CC(=O)O)cc2)c(I)c(N(C)C(C)=O)c1I [Example F2-P-MDTA]
b. CC(=O)N(C)c1c(I)c(C(=O)Nc2ccc(CCCCCCCCCCCCCCC(=O)O)cc2)c(I)c(N(C)C(C)=O)c1I [Example F15-P-MDTA]
Problem: Which of these two has the smaller recorded tissue uptake at 1 min: a or b ? // caller expects the label of the chosen entry
Result: a
